Data credit: PubChem BioAssay AID2685

# ASSAY REMARKS: qHTS Assay for Lipid Storage Modulators in Drosophila S3 Cells
# CONDITION CONTEXT: BODIPY lipid droplet fluorescence, 18-24 h, cells fed with added oleic acid; series mostly up to 46.1 µM
The campaign covered roughly 320,000 compounds. About 2,100 (0.66%) were called active. Not shown: some 53% with an inconclusive outcome. Calls come from the whole dose curve; as a rule, active = well fitted inhibition curve with a large enough effect in the signal ratio, with a control signal flat (not every such curve was filed as active); inconclusive = small, poorly fitted or top-dose-only effect, or effect the other way, or a change in a side signal; inactive = flat fitted curve, though single readings scatter; the % refers to the signal ratio. The full list was thinned out, with actives kept by preference.
Hi there, use one of these labels in your reply, thanks! active, inactive

Examples with answers:
OCCC1CN(Cc2ccncc2)CCN1C1CCCC1 (centres undefined) : inactive
Cc1ccc(N=Nc2c(O)c3ccccc3[nH]c2=O)c(S(=O)(=O)N(C)C)c1 : inactive

IN: Hi, sorry to bother you, what did the test record for `O=C(NC12CC3CC(CC(C3)C1)C2)c1ccc(Br)o1` ?
OUT: inactive

IN: Hi, sorry to bother you, what did the test record for `Cc1c(C)c(C)c(S(=O)(=O)NCCC(=O)N2CCN(Cc3ccc(C#N)cc3)CC2)c(C)c1C` ?
OUT: inactive

IN: Hi, sorry to bother you, what did the test record for `Nn1cc(-c2ccccc2)nc1SCC(=O)NCC(F)(F)F` ?
OUT: inactive
